Biological target: S100A8
Assay: FP; competitive
pKd: −log10 of the molar value.

{"Binder": "VLQTWLQDLLRRGLVRAAQ [TRPM4 (129-147) peptide]", "pKd": 4.89}
